Cited source for all entries: ChEMBL document CHEMBL3351435

Target: Tubulin (Homo sapiens) (UniProt P68371+Q9H4B7+P0DPH7+P68366+Q13509+Q71U36+P04350+Q3ZCM7+P07437+P68363+Q9BQE3+Q6PEY2+Q13885+Q9BVA1+Q9BUF5)
Experiment: Displacement of [3H]colchicine from tubulin (unknown origin) at 5 uM after 10 mins
Type: protein-complex assay
Please note: criterion met applies when inhibition is 60% or greater, and criterion not met applies otherwise.

IN: Could you tell me if the measured inhibition of `COc1cc(C(=O)c2ccn(-c3ccc(N)cc3)c2)cc(OC)c1OC` reaches 60% or more?
OUT: criterion met

IN: Could you tell me if the measured inhibition of `COc1cc(C(=O)c2ccn(-c3ccc(F)cc3)c2)cc(OC)c1OC` reaches 60% or more?
OUT: criterion met

IN: Could you tell me if the measured inhibition of `COc1cc(C(=O)c2ccn(-c3cccc(O)c3)c2)cc(OC)c1OC` reaches 60% or more?
OUT: criterion met

IN: Could you tell me if the measured inhibition of `COc1ccc(-n2ccc(C(=O)c3cc(OC)c(OC)c(OC)c3)c2)cc1` reaches 60% or more?
OUT: criterion met

IN: Could you tell me if the measured inhibition of `COc1cc(C(=O)c2ccn(-c3ccccc3O)c2)cc(OC)c1OC` reaches 60% or more?
OUT: criterion met

IN: Could you tell me if the measured inhibition of `COc1cc(C(=O)c2ccn(-c3cccc(Cl)c3)c2)cc(OC)c1OC` reaches 60% or more?
OUT: criterion not met

IN: Could you tell me if the measured inhibition of `COc1cc(C(=O)c2ccn(-c3cccc(NC(=N)N)c3)c2)cc(OC)c1OC.Cl` reaches 60% or more?
OUT: criterion met

IN: Could you tell me if the measured inhibition of `COc1cc(C(=O)c2ccn(-c3cccc(NC(C)C)c3)c2)cc(OC)c1OC` reaches 60% or more?
OUT: criterion not met
